Molecular target: Melanin Concentrating Hormone Receptor 1 (MCHR1) (Homo sapiens, UniProt Q99705)
Construct: expressed in transfected cells
Sequence (Q99705 whole entry): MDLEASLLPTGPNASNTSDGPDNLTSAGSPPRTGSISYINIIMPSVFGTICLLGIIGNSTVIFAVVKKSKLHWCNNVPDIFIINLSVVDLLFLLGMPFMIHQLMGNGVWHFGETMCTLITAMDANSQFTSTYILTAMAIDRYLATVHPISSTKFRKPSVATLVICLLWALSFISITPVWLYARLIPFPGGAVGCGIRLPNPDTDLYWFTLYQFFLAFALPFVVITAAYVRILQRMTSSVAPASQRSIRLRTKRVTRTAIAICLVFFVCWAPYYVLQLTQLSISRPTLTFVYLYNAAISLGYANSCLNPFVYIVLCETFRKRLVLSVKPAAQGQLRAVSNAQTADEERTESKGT
Assay: MCHR1 Receptor Activation Assay (GTPγ^35S)
Type: biochemical
Details: read-out: GTPγ^35S IC50
Where a name gives a salt, the structure may show the parent alone.
ASSAY_METRIC: pIC50
Please note pIC50 is a logarithmic value: minus log10 of concentration in mol/L. Answer with that number alone.

Per the records, this compound ( Cc1ccc(-c2nnc(C(=O)N3CC(Oc4ccc(CN(C)C)c(C)c4)C3)o2)cc1 [Example 22] ) has pIC50 equal to 7.60

Per the records, this compound ( CCC1(O)CN(Cc2ccc(OC3CN(C(=O)c4nnc(-c5ccc(OC)cc5)o4)C3)cc2)C1 [Example 70] ) has pIC50 equal to 7.70

Per the records, this compound ( CC1(O)CN(Cc2ccc(OC3CN(C(=O)c4nnc(-c5ccccc5)o4)C3)cc2)C1 [Example 77] ) has pIC50 equal to 7.40

Per the records, this compound ( CC1(O)CN(Cc2ccc(OC3CN(C(=O)c4nnc(-c5ccccc5)o4)C3)c(Cl)c2)C1 [Example 78] ) has pIC50 equal to 7.38

Per the records, this compound ( COCCN(C)Cc1ccc(SC2CN(C(=O)c3nnc(-c4ccccc4)o3)C2)cc1 [Example 61, hydrochloride] ) has pIC50 equal to 7.66

Per the records, this compound ( CN1CCN(Cc2ccc(OC3CN(C(=O)c4nnc(-c5ccccc5)o4)C3)cc2Cl)CC1 [Example 50] ) has pIC50 equal to 7.46

Per the records, this compound ( CNCc1ccc(OC2CN(C(=O)c3nnc(-c4ccccc4)o3)C2)cc1C [Example 53] ) has pIC50 equal to 7.55

Per the records, this compound ( CCC1(O)CN(Cc2ccc(OC3CN(C(=O)c4nnc(-c5ccccc5)o4)C3)cc2C)C1 [Example 75] ) has pIC50 equal to 7.77

Per the records, this compound ( Cc1ccc(-c2nnc(C(=O)N3CC(Oc4ccc(CN(C)C)c(F)c4)C3)o2)cc1 [Example 28] ) has pIC50 equal to 7.57

Per the records, this compound ( Cc1ccc(-c2nnc(C(=O)N3CC(Oc4ccc(CN5CCN(C)CC5)cc4C)C3)o2)cc1 [Example 11] ) has pIC50 equal to 7.29

Per the records, this compound ( COc1ccc(-c2nnc(C(=O)N3CC(Oc4ccc(CN5CCC(C)(CO)CC5)c(C)c4)C3)o2)cc1 [Example 82] ) has pIC50 equal to 7.66

Per the records, this compound ( COc1ccc(-c2nnc(C(=O)N3CC(Oc4ccc(CN5CC(OC)C5)cc4)C3)o2)cc1 [Example 55] ) has pIC50 equal to 7.66

Per the records, this compound ( CC(=O)N1CCN(Cc2ccc(OC3CN(C(=O)c4nnc(-c5ccc(Cl)cc5)o4)C3)cc2)CC1 [Example 25] ) has pIC50 equal to 7.47

Per the records, this compound ( COc1ccc(-c2nnc(C(=O)N3CC(Oc4ccc(CN5CCC(C)(CO)C5)cc4C)C3)o2)cc1 (stereo not shown) [Example 90] ) has pIC50 equal to 7.80

Per the records, this compound ( COc1ccc(-c2nnc(C(=O)N3CC(Oc4ccc(CN5CCOCC5)cc4C)C3)o2)cc1 [Example 12] ) has pIC50 equal to 7.52

Per the records, this compound ( COC1CN(Cc2ccc(OC3CN(C(=O)c4nnc(-c5ccccc5)o4)C3)c(Cl)c2)C1 [Example 57] ) has pIC50 equal to 7.74
